# Tested on: Setaria faberi (SETFA)
# assay info: Post-emergence Test (Table B2)
# Type: in vivo
# applied conditions: 1000 g/ha, evaluated after 13 days
Give measured percentage damage caused to the plant, SETFA for each item. Keep answers brief.

Noted percentage damage caused to the plant, SETFA for CCn1c(C)c(-c2cc(C(=O)OC3CCC3)c(Cl)cc2F)c(=O)c(C(=O)O)c1-c1ccc(Cl)c(Cl)c1 , tested on Setaria faberi (SETFA): 5 (5=81-100%)

Kindly note: Setaria faberi (SETFA), C#CCOC(=O)c1cc(-c2c(C)n(CC)c(-c3ccc(Cl)c(Cl)c3)c(C(=O)O)c2=O)c(F)cc1Cl , percentage damage caused to the plant, SETFA value reported: 5 (5=81-100%)

Item CCC#CC(C)OC(=O)c1ccc(F)c(-c2c(C)n(CC)c(-c3ccc(Cl)c(Cl)c3)c(C(=O)O)c2=O)c1 (stereo not drawn) ; assay system Setaria faberi (SETFA); percentage damage caused to the plant, SETFA reported as 4 (4=61-80%)

Sample CC#CC(C)OC(=O)c1ccc(F)c(-c2c(C)n(CC)c(-c3ccc(Cl)c(Cl)c3)c(C(=O)O)c2=O)c1 (stereo not drawn) , system: Setaria faberi (SETFA). Its percentage damage caused to the plant, SETFA is 5 (5=81-100%)

Entry CCn1c(C)c(-c2cc(C(=O)OC3CCCC3)c(Cl)cc2F)c(=O)c(C(=O)O)c1-c1ccc(Cl)c(Cl)c1 : percentage damage caused to the plant, SETFA on Setaria faberi (SETFA) = 5 (5=81-100%)

Setaria faberi (SETFA) data for C=CCOC(=O)c1cc(-c2c(C)n(CC)c(-c3ccc(Cl)c(Cl)c3)c(C(=O)O)c2=O)c(F)cc1Cl ; its percentage damage caused to the plant, SETFA: 5 (5=81-100%)

Assay Setaria faberi (SETFA), sample CCn1c(C)c(-c2cc(C(=O)OC(C)CN(C)C)ccc2F)c(=O)c(C(=O)O)c1-c1ccc(Cl)c(Cl)c1 (stereo not drawn) , percentage damage caused to the plant, SETFA read: 1 (1=0-20%)

Hey, Setaria faberi (SETFA) data for C=CC(C)OC(=O)c1cc(-c2c(C)n(CC)c(-c3ccc(Cl)c(Cl)c3)c(C(=O)O)c2=O)c(F)cc1Cl (stereo not drawn) : percentage damage caused to the plant, SETFA came out at 3 (3=41-60%)

Test item CCn1c(C)c(-c2cc(C(=O)OC(C)C3CC3)ccc2F)c(=O)c(C(=O)O)c1-c1ccc(Cl)c(Cl)c1 (stereo not drawn) ; Setaria faberi (SETFA); reported percentage damage caused to the plant, SETFA was 2 (2=21-40%)
